Just for reference, patent US20210380680A1 is where these values come from.

Target: human Claudin 18.2 (CLDN18.2) (human, UniProt P56856-2 1-261)
Test: cell-based or functional assay
Endpoint Name: ADCC EC50, NCI-N87-CLDN18.2, FcR-TANK (nM)
// return numeric value only (unit: nM, not printed)

Below, each entry is followed by its recorded ADCC EC50, NCI-N87-CLDN18.2, FcR-TANK result.
Binder	ADCC EC50, NCI-N87-CLDN18.2, FcR-TANK (nM)
413H9F8-cp7 (antibody, V domains shown, humanized IgG; constant regions not specified) VH: EVQLVESGGGLVQPGGSLRLSCAASGFTFSSFGMHWVRQAPGKGLEWVSYISSGSSPIYYVDKLKGRFTISRDNAKNSLYLQMNSLRAEDTAVYYCARAGYAVRNALDYWGQGTLVTVSS VL: DIVMTQSPPTLSLSPGERVTLSCKSSQSLLNVGNQKNYLAWYQQKPGQAPKLLIYGASTRESGIPDRFSGSGSGTDFTLTISSLQPEDFAVYYCQNDLFYPLTFGGGTKVEIK	0.28
413H9F8-VL-S32V (antibody, human IgG1, kappa, V domains shown, chimeric human IgG1, PTM site removed; also called 413H9F8-VL-32V; 413H9F8-VL-532V) VH: DVQLVESGGGSVQPGGSRRLSCAASGFTFSSFGMHWVRQAPEKGLEWVAYISSGSSPIYYVDKLKGRFTVSRDNPKNTLFLQMTSLRSEDTAMYYCARAGYAVRNALDYWGQGTSITVSS VL: DIVMTQSPSSLSVSVGEKVTLSCKSSQSLLNVGNQKNYLAWYQQKTGQPPKLLIYGASTRESGVPDRFIGSGSGTDFTLTISSVQAEDLAVYFCQNDLFYPLTFGAGTKLELKR	0.33
364D1A7-VL-S32V (antibody, human IgG1, kappa, V domains shown, chimeric human IgG1, PTM site removed; also called 364D1A7-VL-32V) VH: DVQLVESGGGLVQPGGSRKLSCAASGFTFSSFGMHWVRQAPEKGLEWVAYISSGSGSIYYADTVKGRFTLSRDNPKNTLFLQMTSLRSEDTAIYYCATSYYYGNALEYWGQGTSVTVSS VL: DVVLTQSPSSLTVTEGEKVSMSCKSSQSLFNVGNQKNYLTWYQQKPGQTPTLLIYWASTRKSGVPDRFTGSGSGTDFTLTINTVQAEDLAVYYCQNVYSYPLTFGAGTKLDLKR	0.34

Prompt: If you can, please state the reported ADCC EC50, NCI-N87-CLDN18.2, FcR-TANK value of 364D1A7-H2L2 (antibody, V domains shown, humanized IgG; constant regions not specified) VH: EVQLVESGGGLVQPGGSLRLSCAASGFTFSSFGMHWVRQAPGKGLEWVAYISSGSGSIYYADTVKGRFTISRDNPKNSLYLQMNSLRAEDTAVYYCATSYYYGNALEYWGQGTTVTVSS VL: DIVLTQSPDSLAVSLGERATINCKSSQSLFNVGNQKNYLTWYQQKPGQTPKLLIYWASTRKSGVPDRFSGSGSGTDFTLTISSLQAEDVAVYYCQNVYSYPLTFGGGTKVEIK .
Completion: 0.22

Prompt: Queued: 413H9F8-cp3 (antibody, V domains shown, humanized IgG; constant regions not specified) VH: DVQLVESGGGLVQPGGSLRLSCAASGFTFSSFGMHWVRQAPGKGLEWVAYISSGSSPIYYVDKLKGRFTVSRDNAKNSLYLQMNSLRAEDTAVYYCARAGYAVRNALDYWGQGTLVTVSS VL: EIVMTQSPPTLSLSPGERVTLSCKSSQSLLNVGNQKNYLAWYQQKPGQAPRLLIYGASTRESGIPARFSGSGSGTDFTLTISSLQPEDFAVYYCQNDLFYPLTFGGGTKVEIK
Completion: 0.22

Prompt: Queued: 364D1A7-H1L1 (antibody, V domains shown, humanized IgG; constant regions not specified) VH: EVQLVESGGGLVQPGGSLRLSCAASGFTFSSFGMHWVRQAPGKGLEWVSYISSGSGSIYYADTVKGRFTISRDNAKNSLYLQMNSLRAEDTAVYYCATSYYYGNALEYWGQGTTVTVSS VL: DIVMTQSPDSLAVSLGERATINCKSSQSLFNVGNQKNYLTWYQQKPGQPPKLLIYWASTRKSGVPDRFSGSGSGTDFTLTISSLQAEDVAVYYCQNVYSYPLTFGGGTKVEIK
Completion: 0.4

Prompt: Queued: 413H9F8-H3L4 (antibody, V domains shown, humanized IgG; constant regions not specified) VH: EVQLVESGGGLVQPGGSLRLSCAASGFTFSSFGMHWVRQAPGKGLEWVAYISSGSSPIYYVDKLKGRFTVSRDNAKNSLYLQMNSLRAEDTAVYYCARAGYAVRNALDYWGQGTLVTVSS VL: DIVMTQSPDSLAVSLGERATISCKSSQSLLNVGNQKNYLAWYQQKPGQPPKLLIYGASTRESGVPDRFIGSGSGTDFTLTISSLQAEDVAVYFCQNDLFYPLTFGAGTKVEIK
Completion: 0.35

Prompt: Queued: 413H9F8-cp8 (antibody, V domains shown, humanized IgG; constant regions not specified) VH: DVQLVESGGGLVQPGGSLRLSCAASGFTFSSFGMHWVRQAPGKGLEWVAYISSGSSPIYYVDKLKGRFTISRDNAKNSLYLQMNSLRAEDTAVYYCARAGYAVRNALDYWGQGTLVTVSS VL: DIVMTQSPPTLSLSPGERVTLSCKSSQSLLNVGNQKNYLAWYQQKPGQAPKLLIYGASTRESGIPDRFSGSGSGTDFTLTISSLQPEDFAVYYCQNDLFYPLTFGGGTKVEIK
Completion: 0.27

Prompt: Queued: 413H9F8-cp5 (antibody, V domains shown, humanized IgG; constant regions not specified) VH: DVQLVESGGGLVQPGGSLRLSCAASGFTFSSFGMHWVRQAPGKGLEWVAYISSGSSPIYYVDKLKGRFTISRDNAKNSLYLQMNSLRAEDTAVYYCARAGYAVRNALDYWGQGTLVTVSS VL: DIVMTQSPPTLSLSPGERVTLSCKSSQSLLNVGNQKNYLAWYQQKPGQAPRLLIYGASTRESGIPDRFSGSGSGTDFTLTISSLQPEDFAVYYCQNDLFYPLTFGGGTKVEIK
Completion: 0.27

Prompt: Queued: 364D1A7-H3L1 (antibody, V domains shown, humanized IgG; constant regions not specified) VH: EVQLVESGGGLVQPGGSLRLSCAASGFTFSSFGMHWVRQAPGKGLEWVAYISSGSGSIYYADTVKGRFTLSRDNPKNSLYLQMNSLRAEDTAVYYCATSYYYGNALEYWGQGTTVTVSS VL: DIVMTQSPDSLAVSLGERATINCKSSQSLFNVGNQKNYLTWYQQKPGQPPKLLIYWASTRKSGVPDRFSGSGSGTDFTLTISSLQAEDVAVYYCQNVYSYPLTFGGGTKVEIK
Completion: 0.41
